B1: Protein PTHB1 (Homo sapiens), Q3SYG4 (parent)
chain: MSLFKARDWWSTILGDKEEFDQGCLCLANVDNSGNGQDKIIVGSFMGYLRIFSPHPAKTGDGAQAEDLLLEVDLRDPVLQVEVGKFVSGTEMLHLAVLHSRKLCVYSVSGTLGNVEHGNQCQMKLMYEHNLQRTACNMTYGSFGGVKGRDLICIQSMDGMLMVFEQESYAFGRFLPGFLLPGPLAYSSRTDSFLTVSSCQQVESYKYQVLAFATDADKRQETEQQKLGSGKRLVVDWTLNIGEQALDICIVSFNQSASSVFVLGERNFFCLKDNGQIRFMKKLDWSPSCFLPYCSVSEGTINTLIGNHNNMLHIYQDVTLKWATQLPHIPVAVRVGCLHDLKGVIVTLSDDGHLQCSYLGTDPSLFQAPNVQSRELNYDELDVEMKELQKIIKDVNKSQGVWPMTEREDDLNVSVVVSPNFDSVSQATDVEVGTDLVPSVTVKVTLQNRVILQKAKLSVYVQPPLELTCDQFTFEFMTPDLTRTVSFSVYLKRSYTPSELEGNAVVSYSRPTDRNPDGIPRVIQCKFRLPLKLICLPGQPSKTASHKITIDTNKSPVSLLSLFPGFASQSDDDQVNVMGFHFLGGARITVLASKTSQRYRIQSEQFEDLWLITNELILRLQEYFEKQGVKDFACSFSGSIPLQEYFELIDHHFELRINGEKLEELLSERAVQFRAIQRRLLARFKDKTPAPLQHLDTLLDGTYKQVIALADAVEENQGNLFQSFTRLKSATHLVILLIALWQKLSADQVAILEAAFLPLQEDTQELGWEETVDAAISHLLKTCLSKSSKEQALNLNSQLNIPKDTSQLKKHITLLCDRLSKGGRLCLSTDAAAPQTMVMPGGCTTIPESDLEERSVEQDSTELFTNHRHLTAETPRPEVSPLQGVSE
partner: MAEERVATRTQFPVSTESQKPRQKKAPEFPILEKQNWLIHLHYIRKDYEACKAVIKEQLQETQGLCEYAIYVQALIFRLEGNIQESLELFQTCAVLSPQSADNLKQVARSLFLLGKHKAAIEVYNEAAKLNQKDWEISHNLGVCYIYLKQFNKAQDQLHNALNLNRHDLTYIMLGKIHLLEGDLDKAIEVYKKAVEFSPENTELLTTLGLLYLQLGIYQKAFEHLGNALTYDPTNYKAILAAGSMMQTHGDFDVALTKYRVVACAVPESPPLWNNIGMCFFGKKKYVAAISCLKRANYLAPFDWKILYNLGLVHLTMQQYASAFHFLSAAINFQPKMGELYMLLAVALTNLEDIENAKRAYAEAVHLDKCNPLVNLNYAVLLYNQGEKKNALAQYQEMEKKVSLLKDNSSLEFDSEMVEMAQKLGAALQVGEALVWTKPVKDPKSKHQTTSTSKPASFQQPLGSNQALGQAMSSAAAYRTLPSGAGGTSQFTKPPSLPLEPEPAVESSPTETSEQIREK

# Variants of: B1
# condition_set: with bbs4_human BBS4, Q96RK4
measure_name: effect of a mutation on the interaction

These recorded examples may help you get a feel for the data.
V461E | with no effect
L740E | with no effect
Q597K | with no effect
P497K | with no effect

Ask: Please report the recorded effect of a mutation on the interaction for S545K .
Reply: with no effect

Ask: Same lookup for S788A , please.
Reply: with no effect
